Collected self-cleavage kobs at 640 uM GlcN6P values appear next to each entry.
B1: glmS ribozyme (parent)
chain: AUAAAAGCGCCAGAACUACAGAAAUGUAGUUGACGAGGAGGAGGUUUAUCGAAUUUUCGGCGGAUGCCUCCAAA

variants of: B1; experiment: self-cleavage kobs at 640 uM GlcN6P; higher = faster cleavage; RNA array; settings: with glucosamine-6-phosphate
Variants at the floor of the assay were thinned out.

VARIANT NOTATION | self-cleavage kobs at 640 uM GlcN6P
U30G G37U | < 1e-05 s⁻¹
A36G A42U | < 1e-05 s⁻¹
A36U U49C | < 1e-05 s⁻¹
A14C A33C G44C G59U | < 1e-05 s⁻¹
G37U A52G | < 1e-05 s⁻¹
A6G A36C G38C | < 1e-05 s⁻¹
G44A G60A | < 1e-05 s⁻¹
G32C A33G U47A U54C A64C C71U | < 1e-05 s⁻¹
C8A U46A | < 1e-05 s⁻¹
G9A C11G | < 1e-05 s⁻¹
G7C U47A | < 1e-05 s⁻¹
A14G U45G C50G C68G | < 1e-05 s⁻¹
C8G A12G U49C | < 1e-05 s⁻¹
G35C G60A | < 1e-05 s⁻¹
G60C U65G | < 1e-05 s⁻¹
C8U A42C | < 1e-05 s⁻¹
A14G G66C | 0.000484 s⁻¹
G29A A36U | < 1e-05 s⁻¹
G35U A39U U45G U46C | < 1e-05 s⁻¹
A14C C16U | 0.000451 s⁻¹
C16G A33U G38A G43U C67U | < 1e-05 s⁻¹
A36C A42U A52G C70U | < 1e-05 s⁻¹
A48C U54A | 0.000118 s⁻¹
A6G C11G C34U U45G | < 1e-05 s⁻¹
A12U U31C | 0.00178 s⁻¹
A53U U65C | 8.76e-05 s⁻¹

Measured values drawn from the supplement of paper PMC7125110 for this set.
